- System: Saccharomyces cerevisiae
- method.summary: protein stability index of tFT-peptide fusion (C-terminal peptide) (PSI (0-1 scale)); higher = more stable (slower turnover)
- applied.conditions: genetic background: wild type; temperature: 30 C
Kind request: treat 0.7 as inclusive, so protein stability index at 0.7 or higher is true, anything lower is false.

Here's what some known entries look like.
>>> assigned_label("PSWLPLPLLFLV")
"false"
>>> assigned_label("IGPRGPFHLTRI")
"false"
>>> assigned_label("GIQAGGGGGKGG")
"false"
>>> assigned_label("RWRECVVWGVWG")
"false"
>>> assigned_label("KKKSNNNNQKPH")
"true"
>>> assigned_label("PIPPESLHPDHN")
"true"
>>> assigned_label("KNRKIIIITLPK")
"false"
>>> assigned_label("YFTNCYRSILTF")
"false"

-- ask Answer whether protein stability index of PLPLPAPPPPSP is greater than or equal to 0.7.
-- reply false

* * *

- Test system: Saccharomyces cerevisiae
- method.summary: protein stability index of tFT-peptide fusion (C-terminal peptide) (PSI (0-1 scale)); higher = more stable (slower turnover)
- applied.conditions: genetic background: wild type; temperature: 30 C
reported.property: protein stability index
When you answer, write just the number.

>>> observed_measurement("CRQDWMCFVYLS")
0.0558
>>> observed_measurement("PSSPTPPPSSSP")
0.673
>>> observed_measurement("LCYFFFISLFLG")
0.26
>>> observed_measurement("IWRGGSAVPMIC")
0.195
>>> observed_measurement("SVLCLFSRLRSV")
0.19
>>> observed_measurement("CVFGFACRVLVV")
0.278
>>> observed_measurement("LVGWSWRGWFVV")
0.094
>>> observed_measurement("LRLCMVFAWFLT")
0.216
>>> observed_measurement("DGSFCLLYMTIA")
0.332
>>> observed_measurement("TFRVLFSVALLV")
0.182

Input LFLIFFSFLFLC . Output protein stability index: 0.114

Input LRKARLFLKAKC . Output protein stability index: 0.219

Input RSAVECRVTNIR . Output protein stability index: 0.658

* * *

Below, each of the sequences is paired with its reported protein stability index value.
- Test system: Saccharomyces cerevisiae
- method.summary: protein stability index of tFT-peptide fusion (C-terminal peptide) (PSI (0-1 scale)); higher = more stable (slower turnover)
- applied.conditions: genetic background: wild type; temperature: 30 C
When you answer, write just the number.

Input PPPFSPPAPSPP . Output protein stability index: 0.669

Input PPPDSPPLPAPP . Output protein stability index: 0.659

* * *

Below, each of the sequences is paired with its reported protein stability index value.
- System: Saccharomyces cerevisiae
- method.summary: protein stability index of tFT-peptide fusion (C-terminal peptide) (PSI (0-1 scale)); higher = more stable (slower turnover)
- applied.conditions: genetic background: wild type; temperature: 30 C
When you answer, write just the number.

>>> observed_measurement("APLSPLLPPFLC")
0.391

Input VHLAPPLPPTAT . Output protein stability index: 0.708

Input PAPPALPFHCPR . Output protein stability index: 0.654

* * *

Below, each of the sequences is paired with its reported protein stability index value.
- Test system: Saccharomyces cerevisiae
- method.summary: protein stability index of tFT-peptide fusion in wild type (PSI (0-1 scale)); higher = more stable (slower turnover)
- applied.conditions: genetic background: wild type
When you answer, write just the number.

Input GLYMPSVGCWFR . Output protein stability index: 0.196

Hey, just so you know, these numbers are from the supplement of paper PMC10724198.
